- System: 755483-174-R-J1-PDC complex spheroid growth, percent test/control
- Procedure text: Anticancer human tumor 755483-174-R-J1-PDC patient-derived rhabdomyosarcoma cell line growth inhibition [Asc]
- Assay context: curve of first compound; second compound 0.1 µM
Items are presented alongside their recorded IC50.

Worked cases, IC50 given:
# Molecule, Quantity measured, Measured
records = [
    ("O=C(c1cc(Cc2n[nH]c(=O)c3ccccc23)ccc1F)N1CCN(C(=O)C2CC2)CC1 + CNC(C)C(=O)NC1CN(S(=O)(=O)c2cccc(S(=O)(=O)N3CCC4CCC(C(=O)NC(c5ccccc5)c5ccccc5)N4C(=O)C(NC(=O)C(C)NC)C3)c2)CCC2CCC(C(=O)NC(c3ccccc3)c3ccccc3)N2C1=O", "IC50", "< 31.6 nM"),
    ("NC(=O)C(=Cn1cnc(-c2cc(C(F)(F)F)cc(C(F)(F)F)c2)n1)c1cncnc1 + CNC(C)C(=O)NC1CN(S(=O)(=O)c2cccc(S(=O)(=O)N3CCC4CCC(C(=O)NC(c5ccccc5)c5ccccc5)N4C(=O)C(NC(=O)C(C)NC)C3)c2)CCC2CCC(C(=O)NC(c3ccccc3)c3ccccc3)N2C1=O", "IC50", "< 0.949 nM"),
]

// below: IC50 requested for another molecule
I'd like to know its IC50. The molecule in question is C=CC(=O)N1CCN(c2nc(=O)n(-c3c(C)ccnc3C(C)C)c3nc(-c4c(O)cccc4F)c(F)cc23)C(C)C1 (stereo not drawn) + CNC(C)C(=O)NC1CN(S(=O)(=O)c2cccc(S(=O)(=O)N3CCC4CCC(C(=O)NC(c5ccccc5)c5ccccc5)N4C(=O)C(NC(=O)C(C)NC)C3)c2)CCC2CCC(C(=O)NC(c3ccccc3)c3ccccc3)N2C1=O
31.6 nM

###

Items are presented alongside their recorded viability, T/C.
- System: 755483-174-R-J1-PDC complex spheroid growth, percent test/control
- Procedure text: Anticancer human tumor 755483-174-R-J1-PDC cell line growth inhibition [Asc];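 also: spheroids exposed to compounds for seven days before readout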
- Assay context: second compound 0.01 µM; first compound 0.316 µM; stronger effect = lower value
Express your answer in %, writing the number without its unit.

Worked cases, viability, T/C given:
# Molecule, Assay target, viability, T/C [%]
measured = [
    ("C=C(F)C(=O)N1CCN(c2nc(OCC3CCCN3C)nc3c2CCN(c2cccc4cccc(Cl)c24)C3)CC1CC#N (centres undefined) + CNC(C)C(=O)NC1CN(S(=O)(=O)c2cccc(S(=O)(=O)N3CCC4CCC(C(=O)NC(c5ccccc5)c5ccccc5)N4C(=O)C(NC(=O)C(C)NC)C3)c2)CCC2CCC(C(=O)NC(c3ccccc3)c3ccccc3)N2C1=O", "755483-174-R-J1-PDC complex spheroid growth, percent test/control", 58.9),
    ("COc1c(OCCCN2CCOCC2)ccc2c3n(c(=NC(=O)c4cnc(N)nc4)nc12)CCN3 + CNC(C)C(=O)NC1CN(S(=O)(=O)c2cccc(S(=O)(=O)N3CCC4CCC(C(=O)NC(c5ccccc5)c5ccccc5)N4C(=O)C(NC(=O)C(C)NC)C3)c2)CCC2CCC(C(=O)NC(c3ccccc3)c3ccccc3)N2C1=O", "755483-174-R-J1-PDC complex spheroid growth, percent test/control", 8.95),
]

I'd like to know its viability, T/C. The molecule in question is CCN1CCN(Cc2ccc(Nc3ncc(F)c(-c4cc(F)c5nc(C)n(C(C)C)c5c4)n3)nc2)CC1 + CNC(C)C(=O)NC1CN(S(=O)(=O)c2cccc(S(=O)(=O)N3CCC4CCC(C(=O)NC(c5ccccc5)c5ccccc5)N4C(=O)C(NC(=O)C(C)NC)C3)c2)CCC2CCC(C(=O)NC(c3ccccc3)c3ccccc3)N2C1=O
61

I'd like to know its viability, T/C. The molecule in question is O=C(c1ccc(F)c(F)c1Nc1ccc(I)cc1F)N1CC(O)([C@@H]2CCCCN2)C1 + CNC(C)C(=O)NC1CN(S(=O)(=O)c2cccc(S(=O)(=O)N3CCC4CCC(C(=O)NC(c5ccccc5)c5ccccc5)N4C(=O)C(NC(=O)C(C)NC)C3)c2)CCC2CCC(C(=O)NC(c3ccccc3)c3ccccc3)N2C1=O
29.4

###

- System: 755483-174-R-J1-PDC complex spheroid growth, percent test/control
- Procedure text: Anticancer human tumor 755483-174-R-J1-PDC cell line growth inhibition [Asc];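 also: spheroids exposed to compounds for seven days before readout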
- Assay context: second compound 0.0949 µM; first compound 0.1 µM; stronger effect = lower value
Quantity measured: viability, T/C (%)
Express your answer in %, writing the number without its unit.

# Compound, Readout unit, viability, T/C
data = [
    ("O=C(c1ccc(F)c(F)c1Nc1ccc(I)cc1F)N1CC(O)([C@@H]2CCCCN2)C1 + CCN1C(C(=O)NC23CCC(C(=O)O)(CC2)CC3)C(c2cccc(Cl)c2F)C2(C(=O)Nc3cc(Cl)ccc32)C12CCCCC2", "%", 93.5),
    ("NC1CCC(NC2CC2c2ccccc2)CC1 (stereo not given) + CCN1C(C(=O)NC23CCC(C(=O)O)(CC2)CC3)C(c2cccc(Cl)c2F)C2(C(=O)Nc3cc(Cl)ccc32)C12CCCCC2", "%", 68.8),
    ("CNC(C)C(=O)NC1CN(S(=O)(=O)c2cccc(S(=O)(=O)N3CCC4CCC(C(=O)NC(c5ccccc5)c5ccccc5)N4C(=O)C(NC(=O)C(C)NC)C3)c2)CCC2CCC(C(=O)NC(c3ccccc3)c3ccccc3)N2C1=O (stereo not given) + CCN1C(C(=O)NC23CCC(C(=O)O)(CC2)CC3)C(c2cccc(Cl)c2F)C2(C(=O)Nc3cc(Cl)ccc32)C12CCCCC2", "%", 40.9),
    ("Cn1ncnc1[C@H]1c2n[nH]c(=O)c3cc(F)cc(c23)N[C@@H]1c1ccc(F)cc1 + CCN1C(C(=O)NC23CCC(C(=O)O)(CC2)CC3)C(c2cccc(Cl)c2F)C2(C(=O)Nc3cc(Cl)ccc32)C12CCCCC2", "%", 35.5),
]

Under 755483-174-R-J1-PDC complex spheroid growth, percent test/control: viability, T/C value of C#Cc1c(F)ccc2cc(O)cc(-c3ncc4c(N5CC6CCC(C5)N6)nc(OCC56CCCN5CC(F)C6)nc4c3F)c12 (stereo not given) + CCN1C(C(=O)NC23CCC(C(=O)O)(CC2)CC3)C(c2cccc(Cl)c2F)C2(C(=O)Nc3cc(Cl)ccc32)C12CCCCC2 ?
110

Under 755483-174-R-J1-PDC complex spheroid growth, percent test/control: viability, T/C value of COc1c(OCCCN2CCOCC2)ccc2c3n(c(=NC(=O)c4cnc(N)nc4)nc12)CCN3 + CCN1C(C(=O)NC23CCC(C(=O)O)(CC2)CC3)C(c2cccc(Cl)c2F)C2(C(=O)Nc3cc(Cl)ccc32)C12CCCCC2 ?
25.9

Under 755483-174-R-J1-PDC complex spheroid growth, percent test/control: viability, T/C value of CCN1CCN(Cc2ccc(Nc3ncc(F)c(-c4cc(F)c5nc(C)n(C(C)C)c5c4)n3)nc2)CC1 + CCN1C(C(=O)NC23CCC(C(=O)O)(CC2)CC3)C(c2cccc(Cl)c2F)C2(C(=O)Nc3cc(Cl)ccc32)C12CCCCC2 ?
109

###

- Tested on: 755483-174-R-J1-PDC complex spheroid growth, percent test/control
- Procedure text: Anticancer human tumor 755483-174-R-J1-PDC cell line growth inhibition [Asc];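 also: spheroids exposed to compounds for seven days before readout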
- Assay context: second compound 0.3 µM; first compound 0.0316 µM; stronger effect = lower value
Items are presented alongside their recorded viability, T/C.

Worked cases, viability, T/C given:
# Compound, Assay target, viability, T/C
records = [
    ("Cn1ncnc1[C@H]1c2n[nH]c(=O)c3cc(F)cc(c23)N[C@@H]1c1ccc(F)cc1 + CCN1C(C(=O)NC23CCC(C(=O)O)(CC2)CC3)C(c2cccc(Cl)c2F)C2(C(=O)Nc3cc(Cl)ccc32)C12CCCCC2", "755483-174-R-J1-PDC complex spheroid growth, percent test/control", "30.4%"),
    ("C=C(F)C(=O)N1CCN(c2nc(OCC3CCCN3C)nc3c2CCN(c2cccc4cccc(Cl)c24)C3)CC1CC#N (stereo not drawn) + CCN1C(C(=O)NC23CCC(C(=O)O)(CC2)CC3)C(c2cccc(Cl)c2F)C2(C(=O)Nc3cc(Cl)ccc32)C12CCCCC2", "755483-174-R-J1-PDC complex spheroid growth, percent test/control", "82.9%"),
]

// below: viability, T/C requested for another compound
I'd like to know its viability, T/C. The compound in question is CNC(C)C(=O)NC1CN(S(=O)(=O)c2cccc(S(=O)(=O)N3CCC4CCC(C(=O)NC(c5ccccc5)c5ccccc5)N4C(=O)C(NC(=O)C(C)NC)C3)c2)CCC2CCC(C(=O)NC(c3ccccc3)c3ccccc3)N2C1=O (stereo not drawn) + CCN1C(C(=O)NC23CCC(C(=O)O)(CC2)CC3)C(c2cccc(Cl)c2F)C2(C(=O)Nc3cc(Cl)ccc32)C12CCCCC2
56.1%
